Each entry below carries its recorded Toxicity, animals/number of animals tested.
- Tested on: rotorod test
- experimentalProtocol: Toxicity by the rotorod test
- Assay type: in vivo
- experimentalSetup: dose 100 mg/kg ip; 0.5 h

INSERT INTO measurements (molecule, reportedmeasurement) VALUES
  ('CCCc1cc(C(O)C(F)(F)F)ccc1O (stereo not shown)', '0/8'),
  ('CCCc1cc(C(O)C(F)(F)F)cc(Br)c1O (stereo not shown)', '0/4');

[in] Sample CCc1cc(C(O)C(F)(F)F)ccc1O (stereo not shown) — what was its Toxicity, animals/number of animals tested?
[out] 0/8

[in] Please do the same for Cc1cc(C(O)C(F)(F)F)ccc1O (stereo not shown) as well.
[out] 0/8
